Molecular target: T1, TNFR1 (Homo sapiens, UniProt P19438)
T1 chain: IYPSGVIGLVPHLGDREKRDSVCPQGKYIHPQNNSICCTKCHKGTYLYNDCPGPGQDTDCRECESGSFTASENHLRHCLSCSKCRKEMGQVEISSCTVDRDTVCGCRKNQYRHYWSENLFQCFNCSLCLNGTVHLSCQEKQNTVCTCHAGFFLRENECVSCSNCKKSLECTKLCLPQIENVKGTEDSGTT
Test: yeast display SC50
Param label: returns yes when apparent Kd (screen) < 1 nM, returns no otherwise, including exact equality.

Solved cases below.
{"binder": "L28R (designed binder) SMEEEVEKAAKEYEKKKKEAIEKHLEKRKAKDKEAAERFLKELEEAAKEYAKDEAKTMSEEEAKRRAKKYKEKVLLSELSEEEQKEIKEAEEKLVRTILKYVEEAAK", "category_label": "no"}
{"binder": "K64A (designed binder) SMEEEVEKAAKEYEKKKKEAIEKHLEKLKAKDKEAAERFLKELEEAAKEYAKDEAKTMSEEEAARRAKKYKEKVLLSELSEEEQKEIKEAEEKLVRTILKYVEEAAK", "category_label": "yes"}
{"binder": "Y13I (designed binder) SMEEEVEKAAKEIEKKKKEAIEKHLEKLKAKDKEAAERFLKELEEAAKEYAKDEAKTMSEEEAKRRAKKYKEKVLLSELSEEEQKEIKEAEEKLVRTILKYVEEAAK", "category_label": "no"}
{"binder": "T97I (designed binder) SMEEEVEKAAKEYEKKKKEAIEKHLEKLKAKDKEAAERFLKELEEAAKEYAKDEAKTMSEEEAKRRAKKYKEKVLLSELSEEEQKEIKEAEEKLVRIILKYVEEAAK", "category_label": "no"}
{"binder": "K17T (designed binder) SMEEEVEKAAKEYEKKTKEAIEKHLEKLKAKDKEAAERFLKELEEAAKEYAKDEAKTMSEEEAKRRAKKYKEKVLLSELSEEEQKEIKEAEEKLVRTILKYVEEAAK", "category_label": "no"}
{"binder": "E12N (designed binder) SMEEEVEKAAKNYEKKKKEAIEKHLEKLKAKDKEAAERFLKELEEAAKEYAKDEAKTMSEEEAKRRAKKYKEKVLLSELSEEEQKEIKEAEEKLVRTILKYVEEAAK", "category_label": "no"}

Data request: Lab note: confirm whether the reported apparent Kd (screen) for this binder is below 1 nM, equality not counting. binder: E5L (designed binder) SMEELVEKAAKEYEKKKKEAIEKHLEKLKAKDKEAAERFLKELEEAAKEYAKDEAKTMSEEEAKRRAKKYKEKVLLSELSEEEQKEIKEAEEKLVRTILKYVEEAAK
Data returned: yes

Data request: is_below(apparent Kd (screen), 1 nM) for E78K (designed binder) SMEEEVEKAAKEYEKKKKEAIEKHLEKLKAKDKEAAERFLKELEEAAKEYAKDEAKTMSEEEAKRRAKKYKEKVLLSKLSEEEQKEIKEAEEKLVRTILKYVEEAAK ?
Data returned: no
